Biological target: Microphthalmia-associated transcription factor (Homo sapiens)
Sequence (O75030 whole entry): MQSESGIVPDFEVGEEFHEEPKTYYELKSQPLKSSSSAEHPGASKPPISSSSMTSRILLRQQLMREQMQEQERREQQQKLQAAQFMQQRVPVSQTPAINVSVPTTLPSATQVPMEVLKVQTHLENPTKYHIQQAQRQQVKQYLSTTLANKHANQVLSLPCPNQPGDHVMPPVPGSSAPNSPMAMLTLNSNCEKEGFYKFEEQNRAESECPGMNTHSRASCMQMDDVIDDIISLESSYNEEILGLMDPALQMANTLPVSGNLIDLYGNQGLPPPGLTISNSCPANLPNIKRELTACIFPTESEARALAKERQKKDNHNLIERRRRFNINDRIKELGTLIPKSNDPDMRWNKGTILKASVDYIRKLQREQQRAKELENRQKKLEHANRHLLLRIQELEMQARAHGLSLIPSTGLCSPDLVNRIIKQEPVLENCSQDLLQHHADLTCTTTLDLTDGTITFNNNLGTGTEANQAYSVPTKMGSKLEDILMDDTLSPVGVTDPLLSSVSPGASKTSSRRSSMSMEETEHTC
Assay: TRPM1 promoter luciferase signal decrease, dose response, MITF inhibitor project, cell-based, SK-MEL-5, cherry-picked, set 3 (AID 493073);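 also: SK-MEL-5 melanoma cells with luciferase driven by the MITF target TRPM1 promoter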
Type: functional
Active and inactive are the calls of the source.
Attribute Measured: AC50

[
  {
    "Compound": "CCOC(=O)c1ccc(NC2=CC(=O)C(=O)c3ccccc32)cc1",
    "System Tested": "Microphthalmia-associated transcription factor (Homo sapiens)",
    "Reported Measurement": "4.3 µM (active)"
  },
  {
    "Compound": "CC1=CC2/C=C(\\C)CCC(O)C(O)/C=C/C(=O)C23C(=O)NC(CC(C)C)C3C1C (centres undefined)",
    "System Tested": "Microphthalmia-associated transcription factor (Homo sapiens)",
    "Reported Measurement": "6.58 µM (active)"
  },
  {
    "Compound": "CC(C)CC(=O)NC(c1cccs1)c1ccc2cccnc2c1O (centres undefined)",
    "System Tested": "Microphthalmia-associated transcription factor (Homo sapiens)",
    "Reported Measurement": "3.71 µM (active)"
  }
]

// next item, AC50 requested
Problem: Please give the documented AC50 of CCOc1ccc(-c2noc(CCC(=O)O)n2)cc1
Solution: 2.61 µM (active)

====

Listed here are molecules together with their documented EC50.
Assay: Luminescence Cell-Based Dose Response HTS to Identify Inhibitors of 5'UTR Stem-Loop Driven Prion Protein mRNA Translation in H4 Neuroglioblastoma Cells. [Related pubchem assays: 1827 (Project Summary), 1813 (Primary HTS)]
Assay type: functional
Calls of active or inactive are those of the source.

Problem: Please give the documented EC50 of CCC(C)c1ccc(NC(S)=NCCn2cc(Br)cn2)cc1 (stereo not given)
Solution: > 120 µM (not active)

Problem: Please give the documented EC50 of Cc1ccc2nc(NC(=O)[C@H](C)N3C(=O)C4CC=CCC4C3=O)sc2c1 (stereo not given in full)
Solution: > 120 µM (not active)

Problem: Please give the documented EC50 of CN(C)Cc1ccccc1Sc1ccc2c(c1)CCCC2
Solution: 32.4 µM (active)

Problem: Please give the documented EC50 of COc1ccc(C(=O)[C@H]2[C@H]3C(=O)N(c4ccccc4)C(=O)[C@H]3C3C=CC=NN32)cc1 (stereo not given in full)
Solution: > 120 µM (not active)

Problem: Please give the documented EC50 of COc1ccc(Cn2c(=O)[nH]c3cc(C(=O)NCc4ccc5c(c4)OCO5)ccc3c2=O)cc1
Solution: > 120 µM (not active)

====

Listed here are compounds together with their documented EC50.
Target: Peroxisome proliferator-activated receptor gamma/Nuclear receptor coactivator 1 (Homo sapiens);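 also: agonist potency as compounds enhance coactivator SRC-1 recruitment to PPARgamma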
Sequence (P37231 whole entry): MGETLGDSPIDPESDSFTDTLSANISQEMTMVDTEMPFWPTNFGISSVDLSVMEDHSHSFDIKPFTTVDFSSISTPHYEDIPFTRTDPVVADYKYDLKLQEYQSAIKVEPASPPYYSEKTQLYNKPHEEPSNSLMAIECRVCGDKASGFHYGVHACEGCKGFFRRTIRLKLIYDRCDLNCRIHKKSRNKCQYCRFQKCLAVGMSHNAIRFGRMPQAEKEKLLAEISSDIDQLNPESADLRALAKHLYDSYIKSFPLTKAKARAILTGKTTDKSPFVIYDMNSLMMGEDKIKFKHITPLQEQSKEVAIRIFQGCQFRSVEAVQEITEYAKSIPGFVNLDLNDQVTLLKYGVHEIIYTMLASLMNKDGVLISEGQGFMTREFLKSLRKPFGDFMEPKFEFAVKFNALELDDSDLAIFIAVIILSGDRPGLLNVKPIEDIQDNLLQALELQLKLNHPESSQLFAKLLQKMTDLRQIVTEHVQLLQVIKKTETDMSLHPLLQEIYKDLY
Sequence (Q15788 whole entry, further chain): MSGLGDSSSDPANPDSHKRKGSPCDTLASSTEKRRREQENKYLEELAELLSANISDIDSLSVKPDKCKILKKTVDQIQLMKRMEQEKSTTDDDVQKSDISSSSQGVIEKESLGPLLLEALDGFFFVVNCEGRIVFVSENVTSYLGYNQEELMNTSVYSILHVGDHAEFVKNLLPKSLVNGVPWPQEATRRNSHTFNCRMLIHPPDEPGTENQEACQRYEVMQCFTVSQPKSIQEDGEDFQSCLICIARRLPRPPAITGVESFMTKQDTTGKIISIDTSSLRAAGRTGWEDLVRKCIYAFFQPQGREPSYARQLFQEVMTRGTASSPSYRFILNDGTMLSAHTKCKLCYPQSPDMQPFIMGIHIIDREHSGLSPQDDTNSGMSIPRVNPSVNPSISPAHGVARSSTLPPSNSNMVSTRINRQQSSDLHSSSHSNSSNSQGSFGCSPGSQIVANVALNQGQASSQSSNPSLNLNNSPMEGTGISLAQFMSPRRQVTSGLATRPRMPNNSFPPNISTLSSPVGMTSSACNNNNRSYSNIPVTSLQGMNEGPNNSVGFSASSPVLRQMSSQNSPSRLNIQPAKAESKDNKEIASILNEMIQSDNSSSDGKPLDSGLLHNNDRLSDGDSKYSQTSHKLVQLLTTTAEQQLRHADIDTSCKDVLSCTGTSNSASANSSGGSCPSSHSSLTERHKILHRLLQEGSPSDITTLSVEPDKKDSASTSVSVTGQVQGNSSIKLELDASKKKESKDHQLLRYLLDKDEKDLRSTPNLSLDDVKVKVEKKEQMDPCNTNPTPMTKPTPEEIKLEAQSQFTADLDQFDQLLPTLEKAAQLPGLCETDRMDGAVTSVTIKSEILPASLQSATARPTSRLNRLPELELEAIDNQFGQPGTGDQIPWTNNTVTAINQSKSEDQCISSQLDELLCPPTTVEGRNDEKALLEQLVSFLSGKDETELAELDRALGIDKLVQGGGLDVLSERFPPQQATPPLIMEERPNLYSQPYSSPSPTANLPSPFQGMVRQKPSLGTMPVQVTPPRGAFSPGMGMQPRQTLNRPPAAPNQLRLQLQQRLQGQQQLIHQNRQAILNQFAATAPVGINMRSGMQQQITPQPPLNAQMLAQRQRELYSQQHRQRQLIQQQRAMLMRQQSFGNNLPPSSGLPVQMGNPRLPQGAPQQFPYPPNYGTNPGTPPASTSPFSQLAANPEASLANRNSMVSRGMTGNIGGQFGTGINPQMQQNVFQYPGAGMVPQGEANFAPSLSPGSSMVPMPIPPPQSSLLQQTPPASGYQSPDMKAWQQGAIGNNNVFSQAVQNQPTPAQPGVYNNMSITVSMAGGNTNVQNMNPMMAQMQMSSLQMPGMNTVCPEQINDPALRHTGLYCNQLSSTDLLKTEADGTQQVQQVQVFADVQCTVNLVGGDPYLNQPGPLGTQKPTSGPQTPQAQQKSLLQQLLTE
Format: functional

See these solved cases before continuing.
[
  {
    "Compound": "Cc1cccn2c(=O)c3cc(C(=O)NCCN4CCOCC4)c(=N)n(CCc4ccccc4)c3nc12",
    "EC50": "> 79.4 µM (not active)"
  },
  {
    "Compound": "O=C(c1ccccc1)c1cnc(-c2ccc(Cl)cc2)s1",
    "EC50": "14.4 µM (not active)"
  },
  {
    "Compound": "NS(=O)(=O)c1ccc(NC(=S)NCc2ccc(Cl)cc2)cc1",
    "EC50": "> 79.4 µM (not active)"
  }
]

// next item, EC50 requested
Problem: Please give the documented EC50 of O=C1OCCC1Sc1nnc(-c2ccc(Br)cc2)o1 (centres undefined)
Solution: > 79.4 µM (not active)
